Hello, the source for this data is patent US20240043442A1, in case you need it.

Some compounds, each annotated with its measured clearance.
experiment notes: Mouse PK study (iv 3 mpk, po 30 mpk)
Assay type: in vivo, male CD1 mice
conditions used: male, CD1, whole blood, 3 mg/kg, IV 3 mpk, read-out: Mouse IV 3 mpk CL (converted)
Only the number, expressed in mL/min/kg, is required.

Examples from the recorded data:
C[C@@H]1Cc2c([nH]c3ccccc23)[C@@H](c2c(F)cc(/C=C/C(=O)O)cc2F)N1CC(C)(C)F [AZD9496, reference compound] :: 19
CC/C(=C(/c1ccc(/C=C/C(=O)O)cc1)c1ccc2[nH]ncc2c1)c1ccc(F)cc1Cl [GDC-0810, reference compound] :: 15.3

Here is the next item to consider.
Prompt line: Give recorded clearance. C[C@@H]1Cc2c([nH]c3ccccc23)[C@@H](c2c(Cl)cc(/C=C/C(=O)O)cc2Cl)N1CC(C)(F)F
Response line: 1.33
